# procedure text: Cytotoxic assay (resazurin)
# setup conditions: human, A498 kidney epithelial cells
test readout: IC50 at 48 h (µM)
Number only, in µM; omit the unit.

Fill blank: measured IC50 at 48 h of the compound CC(=O)Nc1ccc2c(c1)C(=O)/C(=C/c1ccc(OC(C)C)cc1)O2 is ____.
453

* * *

# Tested on: M. smegmatis ATCC700084
# procedure text: MIC assay (REMA)
# Type: cell-based, Mycobacterium smegmatis
# setup conditions: Mycolicibacterium smegmatis, ATCC700084, REMA microdilution, n = 2–3
Provide the reported MIC of each item.

Fill blank: measured MIC of the compound CC(C)Oc1ccccc1/C=C1\Oc2ccc(N)cc2C1=O is ____.
> 100 µM

Fill blank: measured MIC of the compound Nc1ccc2c(c1)C(=O)/C(=C/c1ccc(OCc3ccccc3)cc1)O2 is ____.
> 100 µM

Fill blank: measured MIC of the compound Nc1ccc2c(c1)C(=O)/C(=C/c1cccc(F)c1)O2 is ____.
> 100 µM

Fill blank: measured MIC of the compound Nc1ccc2c(c1)C(=O)/C(=C/c1ccc(Oc3ccccc3)cc1)O2 is ____.
> 100 µM

Fill blank: measured MIC of the compound CC(=O)Nc1ccc2c(c1)C(=O)/C(=C/c1cccc(C(F)(F)F)c1)O2 is ____.
> 100 µM

Fill blank: measured MIC of the compound CC(=O)Nc1ccc2c(c1)C(=O)/C(=C/c1ccc(OCc3ccccc3)cc1)O2 is ____.
> 100 µM

Fill blank: measured MIC of the compound CO/N=C1\CN(c2nc3c(cc2F)c(=O)c(C(=O)O)cn3C2CC2)CC1CN (centres unmarked) [Gemifloxacin, reference compound] is ____.
2 µM

Fill blank: measured MIC of the compound CC(=O)Nc1ccc2c(c1)C(=O)/C(=C/c1ccc(Oc3ccccc3)cc1)O2 is ____.
50 µM

* * *

Provide the reported MIC of each item.
# System: M. smegmatis ATCC700084
# procedure text: MIC assay (REMA)
# Assay type: cell-based, Mycobacterium smegmatis
# setup conditions: Mycolicibacterium smegmatis, ATCC700084, REMA microdilution, n = 2–3

Fill blank: measured MIC of the compound Nc1ccc2c(c1)C(=O)/C(=C/c1cccc(OCc3ccccc3)c1)O2 [Compound 12] is ____.
50 µM

Fill blank: measured MIC of the compound CC(=O)Nc1ccc2c(c1)C(=O)/C(=C/c1ccccc1OC(C)C)O2 [Compound 18] is ____.
> 100 µM

Fill blank: measured MIC of the compound CC(=O)Nc1ccc2c(c1)C(=O)/C(=C/c1ccc(C(=O)O)cc1)O2 [Compound 31] is ____.
100 µM

Fill blank: measured MIC of the compound Nc1ccc2c(c1)C(=O)/C(=C/c1ccccc1F)O2 [Compound 26] is ____.
> 100 µM

Fill blank: measured MIC of the compound COc1ccc(/C=C2\Oc3ccc(NC(C)=O)cc3C2=O)cc1 [Compound 6] is ____.
> 100 µM

Fill blank: measured MIC of the compound COc1ccc(/C=C2\Oc3ccc(N)cc3C2=O)cc1 [Compound 9] is ____.
> 100 µM

Fill blank: measured MIC of the compound Nc1ccc2c(c1)C(=O)/C(=C/c1ccc(F)cc1)O2 [Compound 28] is ____.
> 100 µM

Fill blank: measured MIC of the compound CC(C)Oc1ccc(/C=C2\Oc3ccc(N)cc3C2=O)cc1 [Compound 23] is ____.
> 100 µM

Fill blank: measured MIC of the compound CC(=O)Nc1ccc2c(c1)C(=O)/C(=C/c1ccc(OC(C)C)cc1)O2 [Compound 20] is ____.
50 µM

Fill blank: measured MIC of the compound COc1ccccc1/C=C1\Oc2ccc(N)cc2C1=O [Compound 7] is ____.
> 100 µM

Fill blank: measured MIC of the compound CC(C)Oc1cccc(/C=C2\Oc3ccc(N)cc3C2=O)c1 [Compound 22] is ____.
> 100 µM
